pIC50: −log10 of the molar value.
Endpoint: pIC50. System: UniProt:P00915. Items follow.
Sequence (P00915 whole entry): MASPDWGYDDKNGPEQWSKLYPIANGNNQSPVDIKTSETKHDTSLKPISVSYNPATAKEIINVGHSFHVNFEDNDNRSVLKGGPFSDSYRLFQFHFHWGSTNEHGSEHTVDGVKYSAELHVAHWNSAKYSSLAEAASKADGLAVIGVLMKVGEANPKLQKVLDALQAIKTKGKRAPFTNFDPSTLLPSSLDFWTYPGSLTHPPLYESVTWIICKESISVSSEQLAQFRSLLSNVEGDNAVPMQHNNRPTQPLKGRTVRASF

CS(=O)(=O)c1ccc(-n2cc(-c3ccc(F)cc3)c(C(F)(F)F)n2)cc1 ... < 4.00

GET /value?item= `COc1ccc(-n2nc(C(F)(F)F)cc2-c2ccc(Cl)cc2)cc1` &field=pIC50 returns < 4.00

====

Biological target: Carbonic anhydrase 9 (Homo sapiens)
Recorded Metric: pIC50
# pIC50 is unitless: minus log10 of the molar concentration; print number only

GET /value?item= `Cc1ccc(-c2cc(C(F)(F)F)nn2-c2ccc(S(N)(=O)=O)cc2)cc1` &field=pIC50 returns 7.80

====

Biological target: Carbonic anhydrase 4 (Bos taurus, UniProt Q95323)
Sequence (Q95323 whole entry): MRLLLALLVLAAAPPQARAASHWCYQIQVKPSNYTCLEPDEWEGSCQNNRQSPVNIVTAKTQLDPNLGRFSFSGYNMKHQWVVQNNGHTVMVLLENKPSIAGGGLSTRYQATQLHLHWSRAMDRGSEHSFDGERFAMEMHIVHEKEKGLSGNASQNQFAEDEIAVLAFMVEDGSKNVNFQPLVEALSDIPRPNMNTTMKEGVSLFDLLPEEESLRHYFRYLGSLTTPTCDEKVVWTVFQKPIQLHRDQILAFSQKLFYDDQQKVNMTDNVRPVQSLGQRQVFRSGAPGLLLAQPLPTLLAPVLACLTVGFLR
pIC50: −log10 of the molar value.
Recorded Metric: pIC50

CS(=O)(=O)c1ccc(-n2cc(-c3ccc(F)cc3)c(C(F)(F)F)n2)cc1 ... < 4.00

Next compound, please.
Field pIC50 (system: Carbonic anhydrase 4 (Bos taurus, UniProt Q95323)) for entry `COc1ccc(-n2nc(C(F)(F)F)cc2-c2ccc(Cl)cc2)cc1` = < 4.00

====

Endpoint: pIC50. System: Carbonic anhydrase 2 (Homo sapiens). Items follow.
pIC50: −log10 of the molar value.

CS(=O)(=O)c1ccc(-n2cc(-c3ccc(F)cc3)c(C(F)(F)F)n2)cc1 ... < 4.00

Next molecule, please.
GET /value?item= `COc1ccc(-n2nc(C(F)(F)F)cc2-c2ccc(Cl)cc2)cc1` &field=pIC50 returns < 4.00
